# experimental-system: recombinant human BACE-1 (rhBACE-1) (Homo sapiens)
# Construct: expressed as only an extracellular region (amino acid 1-460 residues) of recombinant human β-secretase; His tag (C); purchased R&D systems (Minneapolis, Minn.); host or cells: murine myeloma cell line NS0
# assay: BACE1 inhibitory activity, reverse phase HPLC quantitation of N-terminal fragment of fluorogenic substrate
# Type: biochemical
# experimental-parameters: 1 μL of inhibitor solution in DMSO (100 μM) in 50 μL reaction; MES buffer pH 5.0; 37° C., 60 minutes
Numbered stars: 1 amine (or outer) side, 2 acyl side, 3 side chain; on linkers, the order of the positions; unused ones are H or OH. Square brackets hold non-standard residues; d marks the D form. Peptide text beside a SMILES is read from it. β3hPhe(2R-OH) = O=C([C@H](O)[C@H](Cc1ccccc1)N[*:1])[*:2]; Oxalyl = O=C(C(=O)[*:2])[*:1]; Dap = NC[C@H](N)C(=O)O
Satisfied means recorded inhibition at 2 µM is 70% or above; Not satisfied means it is below 70%.

Observe how each entry below is paired with its result.
compound	label-class
Cc1cc(NC(=O)[C@H](O)[C@H](Cc2ccccc2)NC(=O)[C@H](CC(C)C)NC(=O)[C@@H](NC(=O)[C@@H](N)CCC(=O)O)C(C)C)cc(C)c1OCC(=O)O [Example 178]	Satisfied
CC(C)[C@H](NC(=O)[C@@H](N)CCC(=O)O)C(=O)N[C@@H](Cc1ccc(Cl)c(Cl)c1)C(=O)N[C@@H](Cc1ccccc1)[C@@H](O)C(=O)Nc1cccc(C(=O)O)c1 [Example 170]	Not satisfied
CC(C)C[C@H](NC(=O)[C@@H](NC(=O)[C@@H](N)CCC(=O)O)C(C)(C)C)C(=O)N[C@@H](Cc1ccccc1)[C@@H](O)C(=O)Nc1cccc(C(=O)O)c1 [Example 151]	Not satisfied
CC(C)[C@H](NC(=O)[C@@H](N)CCC(=O)O)C(=O)N[C@@H](Cc1cccc2ccccc12)C(=O)N[C@@H](Cc1ccccc1)[C@@H](O)C(=O)Nc1cccc(C(=O)O)c1 [Example 165]	Satisfied
CC(C)C[C@H](NC(=O)[C@@H](NC(=O)[C@@H](N)CCC(=O)O)C(C)C)C(=O)N[C@@H](Cc1ccccc1)[C@@H](O)C(=O)N[C@@H](CC(=O)O)C(=O)N[C@@H](Cc1ccccc1)C(=O)N[C@@H](CCC(=O)O)C(=O)N[C@@H](Cc1ccccc1)C(=O)O [Example 80] (H-EVL[β3hPhe(2R-OH)]DFEF-OH)	Satisfied

Prompt: Is inhibition at 2 µM for CC(C)C[C@H](NC(=O)[C@@H](NC(=O)[C@@H](N)CCC(=O)O)C(C)C)C(=O)N[C@@H](Cc1ccccc1)[C@@H](O)C(=O)N[C@@H](CC(=O)O)C(=O)N[C@@H](C)C(=O)N1CCCCC1C(=O)O (single isomer, unassigned) [Example 94] at or above 70%?
Completion: Not satisfied

Prompt: Is inhibition at 2 µM for CC(C)C[C@H](NC(=O)[C@@H](NC(=O)[C@H](CN)NC(=O)C(=O)O)C(C)C)C(=O)N[C@@H](Cc1ccccc1)[C@@H](O)C(=O)N[C@@H](CC(=O)O)C(=O)N[C@@H](C)C(=O)N[C@@H](CCC(=O)O)C(=O)O [Example 85] (Oxalyl-[Dap]VL[β3hPhe(2R-OH)]DAE-OH) at or above 70%?
Completion: Satisfied

Prompt: Is inhibition at 2 µM for CC(C)C[C@H](NC(=O)[C@@H](NC(=O)[C@@H](N)CNC(=O)c1nnn[nH]1)C(C)C)C(=O)N[C@@H](Cc1ccccc1)[C@@H](O)C(=O)Nc1cccc(C(N)=O)c1 [Example 124] at or above 70%?
Completion: Satisfied

====

# experimental-system: recombinant human BACE-1 (rhBACE-1) (Homo sapiens)
# Construct: expressed as only an extracellular region (amino acid 1-460 residues) of recombinant human β-secretase; His tag (C); purchased R&D systems (Minneapolis, Minn.); host or cells: murine myeloma cell line NS0
# assay: BACE1 inhibitory activity, reverse phase HPLC quantitation of N-terminal fragment of fluorogenic substrate
# Assay type: biochemical
# experimental-parameters: 1 μL of inhibitor solution in DMSO (100 μM) in 50 μL reaction; MES buffer pH 5.0; 37° C., 60 minutes
Numbered stars: 1 amine (or outer) side, 2 acyl side, 3 side chain; on linkers, the order of the positions; unused ones are H or OH. Square brackets hold non-standard residues; d marks the D form. Peptide text beside a SMILES is read from it. β3hPhe(2R-OH) = O=C([C@H](O)[C@H](Cc1ccccc1)N[*:1])[*:2]; X3 = CC(C)C[C@H](N[*:1])[C@@H](O)C(=O)[*:2]; 4Abz = Nc1ccc(C(=O)O)cc1
Catalogue of inhibition at 2 µM values
Provide the reading as a plain figure in %.

molecule	quantitative-readout
CC(C)C[C@H](NC(=O)[C@@H](NC(=O)[C@@H](N)CCC(=O)O)C(C)C)C(=O)N[C@@H](Cc1ccccc1)[C@@H](O)C(=O)N[C@@H](CC(=O)O)C(=O)N[C@@H](C)C(=O)Nc1ccc(C(=O)O)cc1 [Example 93] (H-EVL[β3hPhe(2R-OH)]DA[4Abz]-OH)	64.8

Prompt: What does the data say about its inhibition at 2 µM? Entry: CC(C)C[C@H](NC(=O)[C@@H](NC(=O)[C@@H](N)CNC(=O)C(=O)O)C(C)C)C(=O)N[C@@H](CC1CCCCC1)[C@@H](O)C(=O)Nc1cccc(C(=O)O)c1 [Example 126]
Completion: 98.9

Prompt: What does the data say about its inhibition at 2 µM? Entry: CC(C)C[C@H](NC(=O)[C@@H](NC(=O)[C@@H](N)CNC(=O)c1cccc(O)c1)C(C)C)C(=O)N[C@@H](Cc1ccccc1)[C@@H](O)C(=O)Nc1cccc(C(=O)O)c1 [Example 150]
Completion: 90.8

Prompt: What does the data say about its inhibition at 2 µM? Entry: CC(C)C[C@H](NC(=O)[C@@H](NC(=O)[C@@H](N)CCC(=O)O)C(C)C)C(=O)N[C@@H](CC(C)C)[C@@H](O)C(=O)N[C@@H](CC(=O)O)C(=O)N[C@@H](C)C(=O)N[C@@H](CCC(=O)O)C(=O)N[C@@H](Cc1ccccc1)C(=O)O [Example 97] (H-EVL[X3]DAEF-OH)
Completion: 59.1

Prompt: What does the data say about its inhibition at 2 µM? Entry: CCC[C@H](NC(=O)[C@@H](NC(=O)[C@@H](N)CCC(=O)O)C(C)C)C(=O)N[C@@H](Cc1ccccc1)[C@@H](O)C(=O)Nc1cccc(C(=O)O)c1 [Example 161]
Completion: 64.7

Prompt: What does the data say about its inhibition at 2 µM? Entry: CC(C)C[C@H](NC(=O)[C@@H](NC(=O)[C@@H](N)CCC(=O)O)C(C)C)C(=O)N[C@@H](Cc1ccccc1)[C@@H](O)C(=O)Nc1cccc(O)c1 [Example 130]
Completion: 57.2

====

# experimental-system: recombinant human BACE-1 (rhBACE-1) (Homo sapiens, UniProt P56817)
# Construct: expressed as only an extracellular region (amino acid 1-460 residues) of recombinant human β-secretase; His tag (C); purchased R&D systems (Minneapolis, Minn.); host or cells: murine myeloma cell line NS0
# Sequence (P56817 22-460 limits assumed): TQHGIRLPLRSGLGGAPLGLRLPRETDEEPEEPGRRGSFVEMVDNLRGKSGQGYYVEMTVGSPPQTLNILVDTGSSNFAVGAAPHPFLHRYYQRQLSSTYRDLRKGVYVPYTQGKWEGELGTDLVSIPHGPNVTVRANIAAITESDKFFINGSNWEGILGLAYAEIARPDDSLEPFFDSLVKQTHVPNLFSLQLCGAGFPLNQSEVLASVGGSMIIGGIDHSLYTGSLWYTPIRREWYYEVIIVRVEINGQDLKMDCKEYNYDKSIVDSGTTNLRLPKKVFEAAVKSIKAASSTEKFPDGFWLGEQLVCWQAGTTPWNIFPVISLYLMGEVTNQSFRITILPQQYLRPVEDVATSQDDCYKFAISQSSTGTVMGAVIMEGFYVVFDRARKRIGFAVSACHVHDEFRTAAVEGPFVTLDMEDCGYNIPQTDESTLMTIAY
# assay: BACE1 inhibitory activity, reverse phase HPLC quantitation of N-terminal fragment of fluorogenic substrate
# Type: biochemical
# experimental-parameters: 1 μL of inhibitor solution in DMSO (100 μM) in 50 μL reaction; MES buffer pH 5.0; 37° C., 60 minutes
Numbered stars: 1 amine (or outer) side, 2 acyl side, 3 side chain; on linkers, the order of the positions; unused ones are H or OH. Square brackets hold non-standard residues; d marks the D form. Peptide text beside a SMILES is read from it. β3hPhe(2R-OH) = O=C([C@H](O)[C@H](Cc1ccccc1)N[*:1])[*:2]; 2Abz = Nc1ccccc1C(=O)O
Yes means recorded inhibition at 100 µM (stock) is 90% or above; No means it is below 90%.

molecule	experimental-system	label-class
CC(C)C[C@H](NC(=O)[C@@H](NC(=O)[C@@H](N)CCC(=O)O)C(C)C)C(=O)N[C@@H](Cc1ccccc1)[C@@H](O)C(=O)N[C@@H](CC(=O)O)C(=O)Nc1ccccc1C(=O)O [Example 78] (H-EVL[β3hPhe(2R-OH)]D[2Abz]-OH)	recombinant human BACE-1 (rhBACE-1) (Homo sapiens, UniProt P56817)	No
CC(C)C[C@H](NC(=O)[C@@H](NC(=O)C(N)CNC(=O)c1ccccc1O)C(C)C)C(=O)N[C@@H](Cc1ccccc1)[C@@H](O)C(=O)Nc1cccc(C(=O)O)c1 (stereo partly shown) [Example 146]	recombinant human BACE-1 (rhBACE-1) (Homo sapiens, UniProt P56817)	No

Prompt: Is inhibition at 100 µM (stock) for CC(C)C[C@H](NC(=O)[C@@H](NC(=O)[C@@H](N)CCC(=O)O)C(C)C)C(=O)N[C@@H](Cc1ccccc1)[C@@H](O)C(=O)Nc1cc(Cl)cc(Cl)c1 [Example 156] at or above 90%?
Completion: No

Prompt: Is inhibition at 100 µM (stock) for CC(C)C[C@H](NC(=O)[C@@H](NC(=O)[C@@H](N)CNC(=O)c1[nH]c(=O)[nH]c(=O)c1F)C(C)C)C(=O)N[C@@H](Cc1ccccc1)[C@@H](O)C(=O)Nc1cccc(-c2nnn[nH]2)c1 [Example 187] at or above 90%?
Completion: Yes

Prompt: Is inhibition at 100 µM (stock) for CC(C)C[C@H](NC(=O)[C@@H](NC(=O)[C@@H](N)CNC(=O)c1cc(O)cc(O)c1)C(C)C)C(=O)N[C@@H](Cc1ccccc1)[C@@H](O)C(=O)Nc1cccc(C(=O)O)c1 [Example 148] at or above 90%?
Completion: Yes

Prompt: Is inhibition at 100 µM (stock) for CC(C)[C@H](NC(=O)[C@@H](N)CNC(=O)c1cc(O)ccc1O)C(=O)N[C@@H](CC1CCCCC1)C(=O)N[C@@H](Cc1ccccc1)[C@@H](O)C(=O)Nc1cccc(-c2nnn[nH]2)c1 [Example 188] at or above 90%?
Completion: Yes

Prompt: Is inhibition at 100 µM (stock) for CC(C)C[C@H](NC(=O)[C@@H](NC(=O)[C@@H](N)CCC(=O)O)C(C)C)C(=O)N[C@@H](Cc1ccccc1)[C@@H](O)C(=O)Nc1cc(Cl)c(OCC(N)=O)c(Cl)c1 [Example 182] at or above 90%?
Completion: No

Prompt: Is inhibition at 100 µM (stock) for CC(C)C[C@H](NC(=O)[C@@H](NC(=O)[C@@H](N)CNC(=O)c1nnn[nH]1)C(C)C)C(=O)N[C@@H](Cc1ccccc1)[C@@H](O)C(=O)Nc1cccc(-c2nnn[nH]2)c1 [Example 185] at or above 90%?
Completion: Yes
